Values were extracted from the nanobody polyreactivity screen of Harvey et al. (2022).

test.method.notes: yeast display, Sf9 membrane polyspecificity reagent, FACS + sequencing; frameworks hold sequencing errors
endpoint.name: polyreactivity (PSR sort gate)

Example results:
monomer.sequence | observed.measurement
QVQLVESGGGLVQAGGSLRLSCAASGFIFYKYAMGWYRQAPGKERELVAAITWRGGRTNYADSVKGRFTISRDNAKNTVYLQMNSLKPEDTAVYYCAADPWYSSYYYSYEYWGQGTQVTVSS | high polyreactivity
QVQLVESGGGLVQAGGSLRLSCAASGSIFWYYAMGWYRQAPGKERELVATITSGGTNYADSVKGRFTISRDNAKNTVYLQMNSLKPEDTAVYYCNADVSWSRIFYLGYDSNDYWGQGTQVTVSS | low polyreactivity
QVQLVESGGGLVQAGGSLRLSCAASGLTFAYYAMGWYRQAPGKETELVAAISWNGARTYYADSVKGRFTISRDNSKNTVYLQMNSLKPEDTAVYYCAAVRSASSWQYIWLKYYYWGQGTQVTVSS | high polyreactivity
QVQLVESVGGLVKAGGSLRLSCAASGSTFRYYSMGWYRPAPGKERELVAGITTGGGRTYYADSVKGRFTISRDNAMNTVYLQMNSLKPEDTAVYSCAADRYSHYWYRNSYDYWGQGTQVTVSS | high polyreactivity
QVQLVESGGGLVQAGGSLRLSCAASGFTFYYNAMGWYRQAPGKERELVAAISWTGGSTRYADSVKGRFTISRDNAKNTVYLQMNSLKPEDTAVYYCAARGYNYWGQGTQVTVSS | high polyreactivity

Given the sequence "QVQLVESGGGLDQAGGSLRLSCAASGIFGVNTMGWYRQAPGKERELVASITSGGSTNYADSVKGRFTISRDNAKNTVYLQMNSLKPEDTAVYYCAAGLYLQGPFDYWGQGTQVTVSS" , what is its reported polyreactivity (PSR sort gate)? low polyreactivity

Given the sequence "QVQLVESGGGLVQAGGRLLLSCAASGSTFTHYAMGWYRQAPGKERELVPAISWGAGSTYYADSVKGRFTNSRDNAKNTVYLQMNSLKPEDTAVYYCAAYLYRYGHKYYSWGQGTQVTVSS" , what is its reported polyreactivity (PSR sort gate)? high polyreactivity

Given the sequence "QGQLVESCGGLVQAGGSLLLSCAASGRIFRSYAMGGYRPAPGKERELVASMSTGGSTNYADSVKGRFTFSRDTAKNSGYLQKNRLKPEDTAVYYCAAGPYYKYWGQRYNYWGQGTQVTVSS" , what is its reported polyreactivity (PSR sort gate)? high polyreactivity

Given the sequence "QVQLVESGGGLVQAGGSLRLSCAASGRTFYGYAMGWYRQPPGKERELVATISGSGGTTYYADSVKGRFTISRDNAKNTVYLQMNSLKPEDTAVYYCAADRYLYFYWWPHVGGSPTYGYWGQGTQVTVSS" , what is its reported polyreactivity (PSR sort gate)? high polyreactivity

Given the sequence "QVQLVESAAGLVQAGGSLRLSCAASGRIFGYYTMGWYRQAPGKERELVAAINGRGTSTYYADSVKGRFTISRDNAKYTVYLQMNSLKPEDTAVYYCAAQLYYYGQYKHFDYWGQGTQVTVSS" , what is its reported polyreactivity (PSR sort gate)? high polyreactivity

---

test.method.notes: yeast display, Sf9 membrane polyspecificity reagent, FACS + sequencing; frameworks hold sequencing errors
endpoint.name: polyreactivity (PSR sort gate)

Example results:
monomer.sequence | polyreactivity (PSR sort gate)
QVQLVESGGGLVQAGGSLRFSCAASGFTIVGNTMGWYRQAPGKERELVASINTNGGSTYYADSVKGRFTISRDNAKNTVYLQMNSLKPEDTAVYYCAKDREDTYFEYEYDYWGQGTQVTVSS | low polyreactivity
QVQLQESGADLEQAGGSLRLSFTASGTISDVRVMAWYRQAPGKERELVATISYVTITYYADSVKGRFTISRDSEKHRVSADDEPETGRYRGVLLRYYWGLGTQVTVSS | low polyreactivity
QVQLVESGGGLVQAGGSLRLSCAASGRTFRSNTMGWYRQAPGKEREFVAVITYSAGSTYYADSVKGRFTISRDNAKNTVYLQMNSLKPEDTAVYYCAATSKYRGDYWGQGTQVTVSS | high polyreactivity
QVQLVESGGGLDQAGGSLRLSCAASGFTSYENAMGSYRQAPGKERELVAAITWDGGSTYYADSVKGRFTISRDNAKNTVYFQMNSLKPEDTAVYYCAARQVVYYAYTFDYWGQGTQVTVSS | low polyreactivity
QVQLVDSGGGLVQAGGSLRLSCAASGFIFSWYAMGWYRQAPGKERELVAAINWSGGSTYYADSVKGRFTISRDNAKNTVYLQMNSLKPEDTAVYYCAAVTSGISKYDYWGQGTQVTVSS | high polyreactivity

Given the sequence "QVQLVESGGGLVQAGGSLRLSCAASGYTFWANAMGRYRQAPGKERELVAAISWTGGSTYYADSVKGRFTISRDNAKNTVYLQMNSLKPEDTAVYYCNRARINTRVQTDDYWGQGTQVTVSS" , what is its reported polyreactivity (PSR sort gate)? high polyreactivity

Given the sequence "QVQLVESGGGLVQAGGSLRLSCAASGITFQYYAMGWYRQAPGKERELVAAISSGGSTYYADSVKGRFTISRDNAKNTVYLQMNILKPEDTAVYYCAAKRVFFGLNYDYWGQGTQVTVSS" , what is its reported polyreactivity (PSR sort gate)? high polyreactivity
